Molecular target: Ephrin type-A receptor 3 (Homo sapiens) (UniProt P29320)
Sequence (whole entry): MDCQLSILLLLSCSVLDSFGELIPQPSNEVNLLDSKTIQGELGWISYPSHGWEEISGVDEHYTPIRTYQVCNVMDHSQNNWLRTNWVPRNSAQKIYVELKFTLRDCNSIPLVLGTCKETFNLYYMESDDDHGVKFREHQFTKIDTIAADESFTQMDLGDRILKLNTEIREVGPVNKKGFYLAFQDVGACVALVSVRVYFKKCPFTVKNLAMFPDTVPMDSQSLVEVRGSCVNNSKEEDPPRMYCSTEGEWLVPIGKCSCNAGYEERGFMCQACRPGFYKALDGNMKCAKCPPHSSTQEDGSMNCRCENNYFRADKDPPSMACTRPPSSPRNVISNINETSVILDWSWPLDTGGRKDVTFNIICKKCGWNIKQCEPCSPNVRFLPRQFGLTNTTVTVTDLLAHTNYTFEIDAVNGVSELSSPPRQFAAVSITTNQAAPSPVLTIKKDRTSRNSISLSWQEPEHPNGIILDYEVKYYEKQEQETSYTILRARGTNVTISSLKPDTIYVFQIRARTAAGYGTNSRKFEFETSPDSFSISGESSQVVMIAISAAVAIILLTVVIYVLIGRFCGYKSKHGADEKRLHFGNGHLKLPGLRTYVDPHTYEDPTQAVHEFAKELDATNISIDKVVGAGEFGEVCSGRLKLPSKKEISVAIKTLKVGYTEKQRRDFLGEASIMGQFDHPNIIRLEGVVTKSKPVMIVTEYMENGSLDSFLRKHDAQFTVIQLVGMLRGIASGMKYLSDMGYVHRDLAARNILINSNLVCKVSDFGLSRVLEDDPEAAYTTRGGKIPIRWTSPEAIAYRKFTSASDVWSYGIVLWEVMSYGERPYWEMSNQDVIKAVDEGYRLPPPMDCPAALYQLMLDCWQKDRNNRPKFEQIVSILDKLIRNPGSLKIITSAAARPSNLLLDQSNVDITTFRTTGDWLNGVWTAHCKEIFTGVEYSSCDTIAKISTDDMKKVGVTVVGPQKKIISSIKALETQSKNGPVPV
Settings: at 10 µM
Just a reminder that ties go to not met: only residual activity strictly below 90% counts as met.

- CCn1cnc2c(Nc3cccc(Cl)c3)nc(N[C@@H]3CCCC[C@@H]3N)nc21: met

Find out if reported residual activity for `N/C(=N\[N+](=O)[O-])N/N=C\c1ccc(-c2cccc([N+](=O)[O-])c2)o1` is less than 90%
met

Find out if reported residual activity for `c1cc(-c2cnn3cc(-c4ccc(OCCN5CCCCC5)cc4)cnc23)ccn1` is less than 90%
met

----------
Target: Calcium/calmodulin-dependent protein kinase type II subunit beta (Homo sapiens)
Settings: at 10 µM
Just a reminder that ties go to label 0: only residual activity strictly below 8% counts as label 1.

* COc1cc2ncnc(Nc3ccc(OCc4ccccc4)cc3)c2cc1OC | label 0
* O=[N+]([O-])/C=C/c1ccc2c(c1)OCO2 | label 0

Find out if reported residual activity for `O=C1NC(=O)c2c1c1c3ccccc3n3c1c1c2c2ccccc2n1C1CCC3O1` is less than 8%
label 0

Find out if reported residual activity for `CN[C@@H]1C[C@H]2O[C@@](C)([C@@H]1OC)n1c3ccccc3c3c4c(c5c6ccccc6n2c5c31)C(=O)NC4` is less than 8%
label 1

Find out if reported residual activity for `COc1ccc2c(c[n+](C)c3c4cc5c(cc4ccc23)OCO5)c1OC` is less than 8%
label 0

Find out if reported residual activity for `O=c1[nH]c2ccccc2n1C1CCN(Cc2ccc(-c3nc4cc5[nH]cnc5cc4nc3-c3ccccc3)cc2)CC1` is less than 8%
label 1

Find out if reported residual activity for `COc1cc(OC)c(/C=C2\C(=O)Nc3ccccc32)c(OC)c1` is less than 8%
label 0

Find out if reported residual activity for `CCn1cnc2c(Nc3cccc(Cl)c3)nc(N[C@@H]3CCCC[C@@H]3N)nc21` is less than 8%
label 0

----------
Molecular target: Misshapen-like kinase 1 (Homo sapiens) (UniProt Q8N4C8)
Sequence (Q8N4C8 whole entry, looked up): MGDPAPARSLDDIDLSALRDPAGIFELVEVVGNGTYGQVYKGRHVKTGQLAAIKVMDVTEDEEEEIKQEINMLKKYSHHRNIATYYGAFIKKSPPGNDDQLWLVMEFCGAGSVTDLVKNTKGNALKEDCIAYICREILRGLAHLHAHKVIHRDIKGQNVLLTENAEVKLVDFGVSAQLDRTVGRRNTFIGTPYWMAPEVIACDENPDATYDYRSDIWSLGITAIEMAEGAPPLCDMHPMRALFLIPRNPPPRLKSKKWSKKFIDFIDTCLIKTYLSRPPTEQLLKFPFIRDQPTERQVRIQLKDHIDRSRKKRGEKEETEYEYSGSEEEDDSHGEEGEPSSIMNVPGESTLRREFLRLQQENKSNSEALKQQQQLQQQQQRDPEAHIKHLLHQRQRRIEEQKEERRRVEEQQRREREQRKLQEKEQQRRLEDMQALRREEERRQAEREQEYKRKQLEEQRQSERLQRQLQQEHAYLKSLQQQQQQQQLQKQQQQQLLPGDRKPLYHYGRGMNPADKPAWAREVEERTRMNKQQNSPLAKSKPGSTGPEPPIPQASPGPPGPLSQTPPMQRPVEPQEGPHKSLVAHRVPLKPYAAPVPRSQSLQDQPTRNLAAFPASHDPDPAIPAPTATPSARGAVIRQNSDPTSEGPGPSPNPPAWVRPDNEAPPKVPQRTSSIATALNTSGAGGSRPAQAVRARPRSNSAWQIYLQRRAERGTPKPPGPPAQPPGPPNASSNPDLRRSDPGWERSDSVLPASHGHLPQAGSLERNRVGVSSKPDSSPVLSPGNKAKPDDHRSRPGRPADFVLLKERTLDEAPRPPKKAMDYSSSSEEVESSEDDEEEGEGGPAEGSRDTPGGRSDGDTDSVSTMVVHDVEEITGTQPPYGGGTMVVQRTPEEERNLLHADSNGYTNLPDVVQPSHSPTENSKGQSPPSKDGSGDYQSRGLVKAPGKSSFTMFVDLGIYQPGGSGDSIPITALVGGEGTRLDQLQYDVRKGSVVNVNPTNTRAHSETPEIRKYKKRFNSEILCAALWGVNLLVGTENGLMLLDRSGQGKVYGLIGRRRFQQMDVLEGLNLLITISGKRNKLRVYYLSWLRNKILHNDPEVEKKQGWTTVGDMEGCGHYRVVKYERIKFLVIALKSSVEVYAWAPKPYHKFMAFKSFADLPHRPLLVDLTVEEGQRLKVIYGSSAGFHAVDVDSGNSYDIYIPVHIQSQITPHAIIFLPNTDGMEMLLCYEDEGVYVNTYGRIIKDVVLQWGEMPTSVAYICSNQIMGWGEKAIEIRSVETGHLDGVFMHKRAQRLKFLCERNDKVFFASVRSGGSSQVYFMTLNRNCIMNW
Conditions: at 10 µM
Consider the following compounds; for each one, report its residual activity.
Returns: string containing the numeric result and its unit.

For each entry beneath this line, provide reported residual activity.
1. CCn1cnc2c(Nc3cccc(Cl)c3)nc(N[C@@H]3CCCC[C@@H]3N)nc21
2. O=C1NC(=O)c2c1c1c3ccccc3n3c1c1c2c2ccccc2n1C1CCC3O1
3. O=c1[nH]c2ccccc2n1C1CCN(Cc2ccc(-c3nc4cc5[nH]cnc5cc4nc3-c3ccccc3)cc2)CC1
4. C[S+]([O-])c1ccc(-c2nc(-c3ccc(F)cc3)c(-c3ccncc3)[nH]2)cc1 (configuration not stated)
5. COC(=O)[C@@]1(O)C[C@H]2O[C@]1(C)n1c3ccccc3c3c4c(c5c6ccccc6n2c5c31)C(=O)NC4
6. O=C1c2ccccc2-c2nc3nnnn3nc21
7. COc1ccc2c(c1)/C(=C/c1cnc[nH]1)C(=O)N2
8. O=[N+]([O-])/C=C/c1ccc2c(c1)OCO2

1. 80%
2. 71%
3. 80%
4. 63%
5. 1%
6. 107%
7. 14%
8. 82%

For each entry beneath this line, provide reported residual activity.
1. COc1cc2ncnc(Nc3ccc(OCc4ccccc4)cc3)c2cc1OC
2. N/C(=N\[N+](=O)[O-])N/N=C\c1ccc(-c2cccc([N+](=O)[O-])c2)o1

["71%", "78%"]

For each entry beneath this line, provide reported residual activity.
1. CC(C)(C)c1cc(C=C(C#N)C#N)cc(Br)c1O
2. c1cc(-c2cnn3cc(-c4ccc(OCCN5CCCCC5)cc4)cnc23)ccn1

1. 113%
2. 13%

----------
Target: cAMP-dependent protein kinase catalytic subunit PRKX (Homo sapiens) (UniProt P51817)
Sequence (P51817 whole entry): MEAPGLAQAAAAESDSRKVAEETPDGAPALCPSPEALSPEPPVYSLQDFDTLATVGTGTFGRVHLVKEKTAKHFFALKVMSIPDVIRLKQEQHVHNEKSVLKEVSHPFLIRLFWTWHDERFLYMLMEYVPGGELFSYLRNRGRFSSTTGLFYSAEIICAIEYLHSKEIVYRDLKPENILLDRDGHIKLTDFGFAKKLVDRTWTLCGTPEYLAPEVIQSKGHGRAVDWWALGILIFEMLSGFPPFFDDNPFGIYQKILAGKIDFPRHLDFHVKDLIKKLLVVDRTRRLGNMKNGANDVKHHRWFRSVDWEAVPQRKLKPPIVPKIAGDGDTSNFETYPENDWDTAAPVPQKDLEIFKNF
Conditions: at 10 µM
PROPERTY MEASURED: residual activity
Returns: string containing the numeric result and its unit.

Below are worked cases with known answers.
• O=[N+]([O-])/C=C/c1ccc2c(c1)OCO2 = 96%
• COc1ccc2c(c[n+](C)c3c4cc5c(cc4ccc23)OCO5)c1OC = 81%
• COC(=O)[C@@]1(O)C[C@H]2O[C@]1(C)n1c3ccccc3c3c4c(c5c6ccccc6n2c5c31)C(=O)NC4 = 0%
• c1cc(-c2cnn3cc(-c4ccc(OCCN5CCCCC5)cc4)cnc23)ccn1 = 26%
• O=C1Nc2ccc3ncsc3c2/C1=C/c1c[nH]cn1 = 6%

For each entry beneath this line, provide reported residual activity.
1. C[S+]([O-])c1ccc(-c2nc(-c3ccc(F)cc3)c(-c3ccncc3)[nH]2)cc1 (stereo unspecified)
2. CCn1cnc2c(Nc3cccc(Cl)c3)nc(N[C@@H]3CCCC[C@@H]3N)nc21
3. CC(C)(C)c1cc(C=C(C#N)C#N)cc(Br)c1O
4. CC(C)[C@H](CO)Nc1nc(Nc2cccc(Cl)c2)c2ncn(C(C)C)c2n1

1: 101%; 2: 51%; 3: 68%; 4: 97%

For each entry beneath this line, provide reported residual activity.
1. O=C1NC(=O)c2c1c1c3ccccc3n3c1c1c2c2ccccc2n1C1CCC3O1
2. O=C1c2ccccc2-c2nc3nnnn3nc21

["53%", "117%"]

----------
Consider the following compounds; for each one, report its residual activity.
Target: Testis-specific serine/threonine-protein kinase 2 (Homo sapiens)
Conditions: at 1 µM
Answers are plain numbers, in %.

* O=C(NC(NC(=S)Nc1ccc(F)c([N+](=O)[O-])c1)C(Cl)(Cl)Cl)C(c1ccccc1)c1ccccc1 (stereo not given) | 102
* Oc1cccc(-c2nc(N3CCOCC3)c3oc4ncccc4c3n2)c1 | 93

For each entry beneath this line, provide reported residual activity.
1. CN(C)CCCn1cc(C2=C(c3c[nH]c4ccccc34)C(=O)NC2=O)c2ccccc21
2. CCOc1cc2ncnc(Nc3cccc(Br)c3)c2cc1OCC
3. CC(C)n1cnc2/c(=N/c3cccc(Cl)c3)nc(NCCO)[nH]c21

[103, 82, 88]

----------
Target: Serine/threonine-protein kinase 10 (Homo sapiens)
Conditions: at 1 µM
Consider the following compounds; for each one, report its residual activity.
One number for each entry, in %.

• O=c1[nH]c2ccccc2n1C1CCN(Cc2ccc(-c3nc4cc5[nH]cnc5cc4nc3-c3ccccc3)cc2)CC1 = 109
• COc1ccc2c(c[n+](C)c3c4cc5c(cc4ccc23)OCO5)c1OC = 100
• O=C1Nc2ccc3ncsc3c2/C1=C/c1c[nH]cn1 = 29
• C[S+]([O-])c1ccc(-c2nc(-c3ccc(F)cc3)c(-c3ccncc3)[nH]2)cc1 (configuration not stated) = 109
• COc1ccc2c(c1)/C(=C/c1cnc[nH]1)C(=O)N2 = 60

For each entry beneath this line, provide reported residual activity.
1. O=[N+]([O-])/C=C/c1ccc2c(c1)OCO2
2. c1cc(-c2cnn3cc(-c4ccc(OCCN5CCCCC5)cc4)cnc23)ccn1

1. 104
2. 37

----------
Target: Serine/threonine-protein kinase SIK1 (Homo sapiens) (UniProt P57059)
Sequence (P57059 whole entry): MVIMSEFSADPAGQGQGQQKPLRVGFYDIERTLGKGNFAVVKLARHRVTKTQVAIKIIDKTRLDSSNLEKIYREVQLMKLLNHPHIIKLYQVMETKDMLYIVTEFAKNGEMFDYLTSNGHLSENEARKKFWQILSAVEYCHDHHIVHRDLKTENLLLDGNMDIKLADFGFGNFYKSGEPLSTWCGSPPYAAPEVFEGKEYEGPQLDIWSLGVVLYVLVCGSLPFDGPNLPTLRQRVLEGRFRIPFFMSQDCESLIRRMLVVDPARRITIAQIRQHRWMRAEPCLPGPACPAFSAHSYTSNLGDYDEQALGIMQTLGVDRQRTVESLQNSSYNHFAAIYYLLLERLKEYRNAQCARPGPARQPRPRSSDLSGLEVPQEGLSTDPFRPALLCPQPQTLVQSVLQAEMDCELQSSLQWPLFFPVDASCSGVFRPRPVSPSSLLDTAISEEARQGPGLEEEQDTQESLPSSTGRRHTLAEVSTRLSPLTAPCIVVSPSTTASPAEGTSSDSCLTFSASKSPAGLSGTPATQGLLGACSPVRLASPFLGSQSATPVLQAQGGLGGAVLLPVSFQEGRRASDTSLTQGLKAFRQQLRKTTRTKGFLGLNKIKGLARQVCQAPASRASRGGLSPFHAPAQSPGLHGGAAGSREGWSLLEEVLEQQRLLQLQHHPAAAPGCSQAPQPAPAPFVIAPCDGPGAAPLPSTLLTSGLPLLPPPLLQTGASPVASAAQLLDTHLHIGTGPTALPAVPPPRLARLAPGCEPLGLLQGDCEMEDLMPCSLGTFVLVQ
Conditions: at 10 µM
Consider the following compounds; for each one, report its residual activity.
Answers are plain numbers, in %.

For each entry beneath this line, provide reported residual activity.
1. c1cc(-c2cnn3cc(-c4ccc(OCCN5CCCCC5)cc4)cnc23)ccn1
2. C[S+]([O-])c1ccc(-c2nc(-c3ccc(F)cc3)c(-c3ccncc3)[nH]2)cc1 (stereo not given)
3. O=c1[nH]c2ccccc2n1C1CCN(Cc2ccc(-c3nc4cc5[nH]cnc5cc4nc3-c3ccccc3)cc2)CC1
4. COc1ccc2c(c1)/C(=C/c1cnc[nH]1)C(=O)N2
5. COC(=O)[C@@]1(O)C[C@H]2O[C@]1(C)n1c3ccccc3c3c4c(c5c6ccccc6n2c5c31)C(=O)NC4
6. O=C1Nc2ccc3ncsc3c2/C1=C/c1c[nH]cn1
7. O=C1NC(=O)c2c1c1c3ccccc3n3c1c1c2c2ccccc2n1C1CCC3O1
8. CCn1cnc2c(Nc3cccc(Cl)c3)nc(N[C@@H]3CCCC[C@@H]3N)nc21

[9, 93, 44, 48, 0, 43, 74, 0]

For each entry beneath this line, provide reported residual activity.
1. COc1cc2ncnc(Nc3ccc(OCc4ccccc4)cc3)c2cc1OC
2. O=[N+]([O-])/C=C/c1ccc2c(c1)OCO2

[103, 112]
